- Run Description: folding stability dG unfold from chymotrypsin proteolysis; higher = more stable

Primary Sequence | Scale Unit | folding stability dG unfold
SAGGSAGGSAGGETIELKLPNGKVLRVEKDKEKGKTYKIYDTKTKKLVKTFKSKEALKKASAGGSAGGSAGG [r7_72_TrROS_Hall] | kJ/mol | 4.97
SAGGSAGGSAMRLRLKVKPGEKVRIRVERDGKVYEFEVTVEEGADEIEIDLPPGVKRIEIEPSAGGSAGGSA [r18_124_TrROS_Hall] | kJ/mol | 15.9
SEEELENLPNVVRLELEVEIDGVRVRIETEFRLNEDGSLEVRTRIEVEPLPPPVEVVLDENGELVEVRVESA [r9_456_TrROS_Hall] | kJ/mol | 14.3
SAGGKPPKIVVKVEKAPNPETGTYTYKVVLYDPVTGKAYVKPVKTKTPEELEKKAKEVAEELAKELASAGGS [r8_480_TrMRF] | kJ/mol | 5.59
SAGGSAGGSAGMRTITIPIPDGDPENIEEQARELADAFPDLKGKKVNIEYHKDGWITITVSAGGSAGGSAGG [r17_324_TrROS] | kJ/mol | 4.98
SAGGSAGGGSSITPVEVTPLPEDKYRVLIRITTYLPGGKPRTEEIEVEMPPDETAEEAAARVLSSAGGSAGG [r6_329_JUSTAS] | kJ/mol | 1.21
SASNRVTVSSETVREGDKKLLKLTVTITDSSTGRTSTETLTTEDPEKAREELAARPDVSTLTFETLTPGSAG [r14_464_JUSTAS] | kJ/mol | -0.819
SAGGSAGGSAGGGMSTAVLKIDDKWVPVRIYPDSVVIEYPDGSTKTISLSEIPENLIELPSAGGSAGGSAGG [r7_748_JUSTAS] | kJ/mol | 2.29
SAGGSAGGSEVLEVVLPRPDGRLVLLRVDPEGRLALVVFPDGSVRVFEVESPEEAVQRVLDAESAGGSAGGS [r12_866_TrMRF] | kJ/mol | 10.9
SAGGSAGGKKIEMKIIKNEDGTKLIVFKSKEEAEEALKKAGYEVKIVSVNEEKGYVVIEIRKKKSAGGSAGG [r6_510_TrROS_Hall] | kJ/mol | 9.24
SAGGSPVLKVEVFELEEDKLLLKIYFPKEEAGLTPEQKEALAKAIQELFPNTKAFTTDEELYIVVDSAGGSA [r2_256_TrMRF] | kJ/mol | 9.98
SAGGSAGGSAGMKTTTLEVSTDPSGYTTTKTKIEIINENTPSISTSTVVTAVTPPAPPIASAGGSAGGSAGG [r11_830_JUSTAS] | kJ/mol | 0.512
SAGGSAGGSAGKKITLPNATITYDEETGEVTITVDGKTITLPPGAKIEVDENGNLTIYLPSAGGSAGGSAGG [r17_34_TrROS_Hall] | kJ/mol | 11.3
SAGGSAGGSAGGISPSANVKLVAVDPERGLVVAVAKDPNSGSVSVVVFDANGNSSILPASAGGSAGGSAGGS [r10_450_TrMRF] | kJ/mol | 2.07
SAGGSADNIEFKFPGIEEVTVWPDKIMFKLPNGYYYVITINNIDEIEIIEVIPPVPPPPPEDPDDKSAGGSA [r15_393_TrROS] | kJ/mol | 9.58
SAMEINIVLVAPPESPEALELAKEVAELVAKEIEEEGIPVEVEVEKIEFFRLPDGSIVVLIPIKVKPPESAG [r14_48_TrMRF] | kJ/mol | 13.7
SAGGSAGGSAGGSMKYITITETTEEEVLVLYYDPETGEPVREEKVLRTVTKTRTLPPDLKSAGGSAGGSAGG [r7_573_JUSTAS] | kJ/mol | 1.82
SAGGSAGGSAGTKTITLPNGLTLTIKPDEPVTITLVKVDPETNEIVEEKTITVYVKEDDLSAGGSAGGSAGG [r11_497_TrROS_Hall] | kJ/mol | 4.99
SAGGSSPLLSPVTLTREVPASEPMAPEEVEAFAAAVAAEVAAAGMTVDFSVERHPDREVLTVTVTVASSAGG [r13_442_JUSTAS] | kJ/mol | 2.84
IETGEYDIEIELPAPNGYKVKVKFKFVKVDPENGKVYVEVELEVTLPGGKPIKLPLRLVMPAEEIKKFLESS [r1_371_TrMRF] | kJ/mol | 20.7
SAGGSAGGSAGGFTIKIETRPMPMFSKDGKPLAEMNMYRIKIEVPDMPPGLADKLIDLIQSAGGSAGGSAGG [r7_450_TrROS] | kJ/mol | 11.2
SAGGSAGGKKKKPPPLVVVKIEITNPNGEKKELTLVFPSLEDAKAAIEALLPPGYTAKVEIKPLSAGGSAGG [r6_289_TrROS_Hall] | kJ/mol | 15.4
SAGGSAGGSAGKTIYAPYSKIPEVIEELKKKGYEIDSIEKVPNGSYKISFKNKPIEINLGSAGGSAGGSAGG [r17_379_TrMRF] | kJ/mol | 16
SAGGSAGGSAKVYVNPDNNKVAVVLPPPGDSYLVLLFDPETGEVRLIEAPPEEVEELLKKGSAGGSAGGSAG [r3_162_TrMRF] | kJ/mol | 5.21
SAGGKLTLELEFELEDGLRVRLRVEVDEDGELRVTLEVEPEPPPPPIRVVKNEDGSEYVYRNGKLYKLSAGG [r13_151_TrROS_Hall] | kJ/mol | 21.7
SAGGSAGGSAGGTAEIYFPNFPIRIDSVQLSPEKNHVQVSMENPDGPPVKGTMPPKDGILSAGGSAGGSAGG [r7_427_TrROS] | kJ/mol | -0.53
SAGMKVVRTRTVWADDSDNPTPLAPEVELVRDAPPTFPLPVTVTTPDGRPYTGTLIALDPDREGLVLGGSAG [r5_735_TrMRF] | kJ/mol | 1.06

====

- Run Description: folding stability dG unfold from trypsin proteolysis; higher = more stable
Note to self: values exactly at 0.7 kcal/mol are 1. So folding stability dG unfold at or above 0.7 kcal/mol is 1, below is 0.

Primary Sequence | Assigned Label
SAGGMKVTITVTDPEAFRAAVEALPEVPPEQVSTSPLPGNSYTATFPSEKAVELLKAAGVPITEIAASAGGS [r16_381_JUSTAS] | 0
SAGKTIVLPPEMTKEQIEALAKELAEEEGFEKVELVEYDEEKGVFTVKVKVDGKEKTIEIKIVSPEELESAG [r5_912_TrROS_Hall] | 1
SAGGMNTESSFPITLPDGRKVLKNVKTDPETGEITVTVTSIGDPNVKTTEKVDPENPEKVLETVTKPESAGG [r13_400_JUSTAS] | 0
SAGAMVTHTITVKIDPSELDKLEEILEKIKNSGPVKAIEPVSFEPGTGVYTVKVTADPATIKLVEEALKSAG [r5_193_JUSTAS] | 1
SAGGKRKIMIPMDEMEEKFGIPPNQTVEELAKYINPNYKIEVDNVRYEKDENGKERYWVKVEIEPPKDSAGG [r13_723_TrROS] | 1
SAGGMKVEVEKDPIKDGTTITVETGLDPEEVRAFLEELLGPPLEDVTFETAPDGTLVVTARVPPDVGSAGGS [r16_605_JUSTAS] | 0
SAGGGGSMTIVVPVEVSPETSEEEVRKRAEEIARPIAEELGKKVSIEVSREEDPEGGRRWTATITILSAGGS [r16_279_JUSTAS] | 1

====

- Run Description: folding stability dG unfold from trypsin proteolysis; higher = more stable
Note to self: values exactly at 3 kcal/mol are condition met. So folding stability dG unfold at or above 3 kcal/mol is condition met, below is condition not met.

Primary Sequence | Assigned Label
SAGNIKIKEVEINDNTLTISYRMPGSGMWVKASIQADKGAIKIKSEYYPPKGKPIGEEEFTVPLDELKLSAG [r5_308_TrROS] | condition not met
SAGGSAGGSAGGVKPGEVLPDGRLLVTWDEETNELTVYFEDTETITLKAPPPVVVSPEDLSAGGSAGGSAGG [r7_522_TrROS_Hall] | condition not met
SAGGSAGGSSPIVVEEEPDRYVITIPPSQPELVEEVLEKLGLPAEDITRTLIPEGLVRYEVPGSAGGSAGGS [r12_493_JUSTAS] | condition not met
SIEFKEGQWFPIREIDNNHIEWKHNNEPYKIPPDEIDEPGDWIRITNGRIPEIRPPPPPPVDPEDAKKKKSA [r9_842_TrROS] | condition not met
SAGGSAGGSKEPIRVDEFEWRKNKDGMDMVQVTFPNNGKDIHLPPEHLDNLEPGDEIPLDDLISAGGSAGGS [r20_3_TrROS] | condition not met
SAGGSAGGSAMKVGEEVEVTVRIKVDGKEYEVKAKATLDEDGNVTLEVEIKAKEGKVEIEIESAGGSAGGSA [r18_428_TrROS_Hall] | condition met
SMKIYKTKEEAEKAAKETGKKVIVIKKGMSLEELLELLKKLKGLKEGQKVILVIQNEDGETYVIVLEIKPSA [r9_314_TrROS_Hall] | condition not met
SAGKEKEIAEAIEEFLKEKGYDVKVKLIKVNPNNPNLSKVVLEVEVLGYLPDKKPLGKKRFKLVILGGSAGG [r19_418_TrMRF] | condition not met
SAGLLEVLRKIAEELGWELTSVEVHELPDGSVVATGEFRKGDRTYRVDIRYDPETGRVEVRLEPVPVPESAG [r14_784_TrMRF] | condition met
SAGGSAGGSMVEEFLASLPPDATVTVDPSTGVVTVSLPAEGRTLTLTVDTATGTVTETERRPESAGGSAGGS [r12_82_JUSTAS] | condition not met
SAGGSAGGSAGGKRTLLIRVPPGASVEQVLEELKRLLPPGAKITVELDPETRTLRVTIDSAGGSAGGSAGGS [r10_163_TrROS_Hall] | condition met
SAGGSAGGSAMLENARPFPIDLPTKYRLRIVLPDGRVLELEYDPKSGVPRLRVVPVEEALKRSAGGSAGGSA [r18_247_TrMRF] | condition not met
SAGGSAMFYLLKVELPDGKVLEIRIEATPEEKEEFVEKIKSHPEVKSVELEPISKEEAEELGFEEISAGGSA [r15_39_TrMRF] | condition not met
SAKKVIIEVKSLEELLKAAKEAAKKGEKVEVLVKLKDGYYVKITMEFDKKTKKIKIKKIEIKPIKKEDLSAG [r14_455_TrROS_Hall] | condition not met
